All figures here come from the supplement of paper PMC10567573.

B1: PPFIA4 (parent)
chain: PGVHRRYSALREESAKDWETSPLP

Variants of: B1
Experiment: protein stability index of a GFP-peptide fusion (GPS, HEK-293T) (PSI 1-6); higher = more stable;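 further: lentivirally expressed fusions sorted by FACS into six bins by GFP to DsRed ratio, PSI derived from sequencing read proportions per bin multiplied by bin number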
Settings: c terminus: a fixed tail appended
quantity name: protein stability index
Give the value as a plain number.

Look over these answered cases.
seq text: PGVHRRISALREESAKDWETSPLP [Y7I]
quantity name: protein stability index
recorded result: 4.34
//
seq text: PGVHRRYSALREEGAKDWETSPLP [S14G]
quantity name: protein stability index
recorded result: 4.12
//
seq text: PGVHRRYSALQEESAKDWETSPLP [R11Q]
quantity name: protein stability index
recorded result: 4.65
//
seq text: PGVHRRYSALREESAKDWEESPLP [T20E]
quantity name: protein stability index
recorded result: 4.62

Exercise: Sample PGVHRLYSALREESAKDWETSPLP [R6L] — what was its protein stability index?
Solution: 3.04

Exercise: Sample PGVHRRYSALPEESAKDWETSPLP [R11P] — what was its protein stability index?
Solution: 4.19

Exercise: Sample PGVHRRYSAIREESAKDWETSPLP [L10I] — what was its protein stability index?
Solution: 4.15

Exercise: Sample PGVHRRYSALREESAKDWETSCLP [P22C] — what was its protein stability index?
Solution: 4.02

Exercise: Sample PGVHRRYGALREESAKDWETSPLP [S8G] — what was its protein stability index?
Solution: 4.23

Exercise: Sample PGVHRRYSALREDSAKDWETSPLP [E13D] — what was its protein stability index?
Solution: 3.74

Exercise: Sample PQVHRRYSALREESAKDWETSPLP [G2Q] — what was its protein stability index?
Solution: 4.43
